- TEST_METHOD_NOTES: VSVG counterscreen qHTS to identify inhibitors of SARS-CoV-2 cell entry (AID 1645847); also: potency is read from the fitted curve at half-maximal effect; nearly all actives have a fitted effect of over 65% in size
- EXPERIMENTAL_CONTEXT: VSV-G pseudotyped particle entry, luciferase; series mostly up to 57.2 µM
Inconclusive results are not listed. Active and inactive are the calls of the source. Calls follow the shape of the full dose curve.
TEST_READOUT: Potency

Before answering, review these 3 worked examples.
[[record]]
given_smiles = "COc1c(C)c2c(c(O)c1C/C=C(\\C)CCC(=O)O)C(=O)OC2"
measurement = "482 nM (active)"

[[record]]
given_smiles = "CC(=O)[C@]1(O)Cc2c(O)c3c(c(O)c2[C@@H](O[C@H]2C[C@H](N)[C@H](O)[C@H](C)O2)C1)C(=O)c1ccccc1C3=O"
measurement = "85.7 nM (active)"

[[record]]
given_smiles = "CC[C@]1(O)C[C@@H]2CN(CCc3c([nH]c4ccccc34)[C@@](C(=O)OC)(c3cc4c(cc3OC)N(C)[C@H]3[C@@](O)(C(=O)OC)[C@H](OC(C)=O)[C@]5(CC)C=CCN6CC[C@]43[C@@H]65)C2)C1"
measurement = "34.1 nM (active)"


Could you now consider this next molecule?
Value lookup for Potency; key = Nc1ncn([C@@H]2O[C@H](CO)[C@@H](O)[C@H]2O)c(=O)n1 19200 nM (active)

====

- EXPERIMENTAL_CONTEXT: Ebola virus entry assay, blue channel fluorescence
Calls of active or inactive are those of the source.
Select the matching outcome among T (active), F (inactive)

[[record]]
molecule = "Cc1ccc(O)c([C@H](CCN(C(C)C)C(C)C)c2ccccc2)c1"
assigned_label = "T"

[[record]]
molecule = "C[C@@H](O[C@H]1OCCN(Cc2n[nH]c(=O)[nH]2)[C@H]1c1ccc(F)cc1)c1cc(C(F)(F)F)cc(C(F)(F)F)c1"
assigned_label = "T"

[[record]]
molecule = "CCCNCC(O)COc1ccccc1C(=O)CCc1ccccc1 (stereo not drawn)"
assigned_label = "T"

[[record]]
molecule = "NCCC(O)(P(=O)(O)O)P(=O)(O)O"
assigned_label = "F"

[[record]]
molecule = "NNCCc1ccccc1"
assigned_label = "F"


Returns: the outcome recorded for CNCCC(Oc1ccc(C(F)(F)F)cc1)c1ccccc1 (stereo not drawn) in this assay. T

Returns: the outcome recorded for CCCN1CCC[C@@H]2Cc3nc(N)ncc3C[C@H]21 in this assay. T

Returns: the outcome recorded for CN1CC[C@H](c2c(O)cc(O)c3c(=O)cc(-c4ccccc4Cl)oc23)[C@H](O)C1 in this assay. F

====

- TEST_SYSTEM: D(1A) dopamine receptor (Homo sapiens) (UniProt P21728)
- Sequence (P21728 whole entry, looked up): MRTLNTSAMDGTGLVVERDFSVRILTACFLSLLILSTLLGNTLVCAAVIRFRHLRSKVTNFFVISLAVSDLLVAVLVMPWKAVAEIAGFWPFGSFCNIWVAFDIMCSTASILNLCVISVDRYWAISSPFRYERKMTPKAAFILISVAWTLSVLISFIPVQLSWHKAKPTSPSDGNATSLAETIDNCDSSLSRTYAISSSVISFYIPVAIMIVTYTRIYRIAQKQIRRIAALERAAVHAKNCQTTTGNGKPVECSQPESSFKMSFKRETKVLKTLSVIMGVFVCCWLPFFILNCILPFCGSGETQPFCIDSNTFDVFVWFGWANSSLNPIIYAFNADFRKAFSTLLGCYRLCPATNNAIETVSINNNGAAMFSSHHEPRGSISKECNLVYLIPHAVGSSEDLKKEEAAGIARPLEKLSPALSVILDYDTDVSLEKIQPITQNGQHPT
- TEST_METHOD_NOTES: HTS Assay for Allosteric Agonists of the Human D1 Dopamine Receptor: Primary Screen for Antagonists (AID 488983);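 also: calcium flux response to an EC80 dopamine challenge measured with no-wash dye; nearly all actives have a fitted effect of over 65% in size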
- EXPERIMENTAL_CONTEXT: D1 receptor cell assay, antagonist mode, qHTS titration; series mostly up to 41.8 µM
Records with an inconclusive call do not appear. The source made the active and inactive calls. Calls follow the shape of the dose curve; as a rule, active = well fitted inhibition curve with a large enough effect; inconclusive = small, poorly fitted or top-dose-only effect, or effect the other way; inactive = flat fitted curve, though single readings scatter.
Select the matching outcome among active, inactive

Here's what some known entries look like.
[[record]]
compound = "Fc1ccc(C(OCCN2CCN(CCCc3ccccc3)CC2)c2ccc(F)cc2)cc1"
test_system = "D(1A) dopamine receptor (Homo sapiens) (UniProt P21728)"
assigned_label = "inactive"

[[record]]
compound = "O=C1NCN(c2ccccc2)C12CCN(CC1COc3ccccc3O1)CC2 (stereo unspecified)"
test_system = "D(1A) dopamine receptor (Homo sapiens) (UniProt P21728)"
assigned_label = "inactive"

[[record]]
compound = "N#CC(C#N)=Cc1ccc(O)c(O)c1"
test_system = "D(1A) dopamine receptor (Homo sapiens) (UniProt P21728)"
assigned_label = "inactive"

[[record]]
compound = "Nc1ccncc1"
test_system = "D(1A) dopamine receptor (Homo sapiens) (UniProt P21728)"
assigned_label = "inactive"

[[record]]
compound = "CN(C)CCC=C1c2ccccc2CCc2ccccc21"
test_system = "D(1A) dopamine receptor (Homo sapiens) (UniProt P21728)"
assigned_label = "active"


Returns: the outcome recorded for CC(C)=CCOc1c2occc2cc2ccc(=O)oc12 in this assay. inactive

Returns: the outcome recorded for CC(=O)[C@H]1CC[C@H]2[C@@H]3CC[C@H]4C[C@](C)(O)CC[C@]4(C)[C@H]3CC[C@]12C in this assay. inactive

Returns: the outcome recorded for Cc1cccc(C)c1NC(=O)CN1CCCC1=O in this assay. inactive

Returns: the outcome recorded for CN1C[C@H](CNC(=O)OCc2ccccc2)C[C@@H]2c3cccc4c3c(cn4C)C[C@H]21 in this assay. active

Returns: the outcome recorded for C=C(C)[C@H]1Cc2c(ccc3c2O[C@@H]2COc4cc(OC)c(OC)cc4[C@@H]2C3=O)O1 in this assay. inactive

Returns: the outcome recorded for CCCN1CCC[C@@H]2Cc3[nH]ncc3C[C@H]21 in this assay. inactive

Returns: the outcome recorded for c1ccc(C2CC2)c(OCC2=NCCN2)c1 in this assay. inactive

Returns: the outcome recorded for NCC(CC(=O)O)c1ccc(Cl)cc1 (stereo unspecified) in this assay. inactive

Returns: the outcome recorded for CC[C@@H](CO)NC(=O)[C@@H]1C=C2c3cccc4[nH]cc(c34)C[C@H]2N(C)C1 in this assay. active

Returns: the outcome recorded for Cc1ncc(CNC(=O)N(CCCl)N=O)c(N)n1 in this assay. inactive

Returns: the outcome recorded for C[C@@H]1O[C@@H](O[C@H]2C[C@@H](O)[C@]3(CO)[C@H]4[C@H](O)C[C@]5(C)[C@@H](C6=CC(=O)OC6)CC[C@]5(O)[C@@H]4CC[C@]3(O)C2)[C@H](O)[C@H](O)[C@H]1O in this assay. inactive

Returns: the outcome recorded for NCC(O)c1ccc(O)cc1 (stereo unspecified) in this assay. inactive

Returns: the outcome recorded for NN=C(N)N in this assay. inactive

Returns: the outcome recorded for CNCC(O)c1ccc(O)cc1 (stereo unspecified) in this assay. inactive

Returns: the outcome recorded for Cc1ccc(S(=O)(=O)N[C@@H](CCCCN)C(=O)CCl)cc1 in this assay. inactive

Returns: the outcome recorded for COc1ccc(C(CN(C)C)C2(O)CCCCC2)cc1 (stereo unspecified) in this assay. inactive

Returns: the outcome recorded for Cc1cccc(C)c1NC1=NCCCS1 in this assay. inactive

Returns: the outcome recorded for CC(=O)[C@H]1CC[C@H]2[C@@H]3CC[C@H]4C[C@H](O)CC[C@]4(C)[C@H]3C(=O)C[C@]12C in this assay. inactive

Returns: the outcome recorded for CCCC(C)(COC(N)=O)COC(=O)NC(C)C (stereo unspecified) in this assay. inactive

Returns: the outcome recorded for CC(O)(CS(=O)(=O)c1ccc(F)cc1)C(=O)Nc1ccc(C#N)c(C(F)(F)F)c1 (stereo unspecified) in this assay. inactive

Returns: the outcome recorded for CCC1(C2=NCCN2)Cc2ccccc2O1 (stereo unspecified) in this assay. inactive

====

- TEST_METHOD_NOTES: S16 Schwann cell PMP22 intronic element firefly luciferase assay (AID 624032); also: nearly all actives have a fitted effect of over 30% in size
- EXPERIMENTAL_CONTEXT: S16 rat Schwann cells, PMP22 element FLuc, 24 h; series mostly up to 57.5 µM
Results filed as inconclusive are left out. Calls of active or inactive are those of the source. The call rests on the fitted dose curve; in most records, active means well fitted inhibition curve with a large enough effect; inconclusive means small, poorly fitted or top-dose-only effect; inactive means no such curve, though single readings can be large or run the other way.
Select the matching outcome among active, inactive

[[record]]
compound = "O=[N+]([O-])c1cc([As](=O)(O)O)ccc1O"
assigned_label = "inactive"


Returns: the outcome recorded for Fc1ccc(C(OCCN2CCN(CCCc3ccccc3)CC2)c2ccc(F)cc2)cc1 in this assay. active

Returns: the outcome recorded for CCN(C(C)=O)c1cccc(-c2ccnc3c(C#N)cnn23)c1 in this assay. inactive

Returns: the outcome recorded for CC(C)(N)Cc1ccc(Cl)cc1 in this assay. inactive

====

- TEST_METHOD_NOTES: Cell Viability - LYMP2-016 (AID 984);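 also: cells exposed to compound for 24 hours at 37 °C; nearly all actives have a fitted effect of over 55% in size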
- EXPERIMENTAL_CONTEXT: LYMP2-016 lymphoblastoid cell viability, qHTS; series mostly up to 92.2 µM
Inconclusive results are not listed. Activity calls are given as the source filed them. Calls follow the shape of the dose curve; as a rule, active = well fitted cell-killing curve with a large enough effect; inconclusive = small, poorly fitted or top-dose-only effect; inactive = flat fitted curve, though single readings scatter.
Select the matching outcome among active, inactive

Here's what some known entries look like.
[[record]]
compound = "c1ccc2c(c1)Nc1ccccc1S2"
assigned_label = "inactive"

[[record]]
compound = "NCC(O)c1ccc(O)cc1 (configuration not stated)"
assigned_label = "inactive"

[[record]]
compound = "N[C@@H](Cc1ccc(N(CCCl)CCCl)cc1)C(=O)O"
assigned_label = "active"

[[record]]
compound = "CNCC(O)c1ccc(O)cc1 (configuration not stated)"
assigned_label = "inactive"

[[record]]
compound = "Oc1ccc(Cl)cc1Cc1ccccc1"
assigned_label = "inactive"


Returns: the outcome recorded for CCCC(C)(COC(N)=O)COC(=O)NC(C)C (configuration not stated) in this assay. inactive

Returns: the outcome recorded for Oc1cccc2cccnc12 in this assay. active

====

- EXPERIMENTAL_CONTEXT: Ebola virus entry cell assay, ratio channel
Active and inactive are the calls of the source.
Select the matching outcome among 1 = active, 0 = inactive

[[record]]
molecule = "NC[C@H](O)c1ccc(O)c(O)c1"
assigned_label = 0

[[record]]
molecule = "CC(C)n1c(/C=C/[C@@H](O)C[C@@H](O)CC(=O)O)c(-c2ccc(F)cc2)c2ccccc21"
assigned_label = 0

[[record]]
molecule = "CCN(CC)CCOC(=O)C1(C2CCCCC2)CCCCC1"
assigned_label = 1

[[record]]
molecule = "Cc1cnc(C(=O)NCCc2ccc(S(=O)(=O)NC(=O)NC3CCCCC3)cc2)cn1"
assigned_label = 0

[[record]]
molecule = "CN1CCc2cccc3c2[C@H]1Cc1ccc(O)c(O)c1-3"
assigned_label = 0

[[record]]
molecule = "Cn1cnc([N+](=O)[O-])c1Sc1ncnc2nc[nH]c12"
assigned_label = 0

[[record]]
molecule = "COc1cc2nc(N3CCN(C(=O)c4ccco4)CC3)nc(N)c2cc1OC"
assigned_label = 1

[[record]]
molecule = "CC1(C)NC(=O)N(c2ccc([N+](=O)[O-])c(C(F)(F)F)c2)C1=O"
assigned_label = 0


Returns: the outcome recorded for CC(C)Nc1cccnc1N1CCN(C(=O)c2cc3cc(NS(C)(=O)=O)ccc3[nH]2)CC1 in this assay. 0

Returns: the outcome recorded for CCOC(=O)C1(c2ccccc2)CCN(CCC(C#N)(c2ccccc2)c2ccccc2)CC1 in this assay. 1

Returns: the outcome recorded for Cc1nc(Nc2ncc(C(=O)Nc3c(C)cccc3Cl)s2)cc(N2CCN(CCO)CC2)n1 in this assay. 1

Returns: the outcome recorded for OCCN1C[C@H](O)[C@@H](O)[C@H](O)[C@H]1CO in this assay. 0

Returns: the outcome recorded for CC(CN1c2ccccc2Sc2ccccc21)N(C)C (stereo unspecified) in this assay. 1

Returns: the outcome recorded for COc1cc(NCc2ccc3nc(N)nc(N)c3c2C)cc(OC)c1OC in this assay. 0

Returns: the outcome recorded for O=C(CCCCCCC(=O)Nc1ccccc1)NO in this assay. 0

Returns: the outcome recorded for CN(C)CCC=C1c2ccccc2C=Cc2ccccc21 in this assay. 1

Returns: the outcome recorded for Cc1[nH]c(=O)c(C#N)cc1-c1ccncc1 in this assay. 0

Returns: the outcome recorded for CN1CCC[C@@H]1CCO[C@](C)(c1ccccc1)c1ccc(Cl)cc1 in this assay. 1

Returns: the outcome recorded for COC(=O)[C@H]1[C@H]2C[C@@H]3c4[nH]c5cc(OC)ccc5c4CCN3C[C@H]2C[C@@H](OC(=O)c2cc(OC)c(OC)c(OC)c2)[C@@H]1OC in this assay. 0

Returns: the outcome recorded for C[C@@H]1C[C@H]2[C@@H]3CCC4=CC(=O)C=C[C@]4(C)[C@@]3(F)[C@@H](O)C[C@]2(C)[C@@]1(O)C(=O)CO in this assay. 0

Returns: the outcome recorded for C1N2CN3CN1CN(C2)C3 in this assay. 0

Returns: the outcome recorded for CC(C)(C(=O)O)c1ccc(C(O)CCCN2CCC(C(O)(c3ccccc3)c3ccccc3)CC2)cc1 (stereo unspecified) in this assay. 0

Returns: the outcome recorded for COc1ccccc1Oc1c(NS(=O)(=O)c2ccc(C(C)(C)C)cc2)nc(-c2ncccn2)nc1OCCO in this assay. 0

Returns: the outcome recorded for CN1CCN(CCCN2c3ccccc3Sc3ccc(Cl)cc32)CC1 in this assay. 1

Returns: the outcome recorded for CC(COc1ccccc1)N(CCCl)Cc1ccccc1 (stereo unspecified) in this assay. 0

Returns: the outcome recorded for CCOc1ccc2ccccc2c1C(=O)N[C@@H]1C(=O)N2[C@@H]1SC(C)(C)[C@@H]2C(=O)O in this assay. 0

Returns: the outcome recorded for CC(C)(C)NC(=O)[C@@H]1CN(Cc2cccnc2)CCN1C[C@@H](O)C[C@@H](Cc1ccccc1)C(=O)N[C@H]1c2ccccc2C[C@H]1O in this assay. 0

Returns: the outcome recorded for CN(C)CCc1c[nH]c2ccc(CS(=O)(=O)N3CCCC3)cc12 in this assay. 0
